B1: ZNF8 (parent)
chain: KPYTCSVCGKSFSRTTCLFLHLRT

Variants of: B1
run-description: protein stability index of a GFP-peptide fusion (GPS, HEK-293T) (PSI 1-6); higher = more stable;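 also: lentivirally expressed fusions sorted by FACS into six bins by GFP to DsRed ratio, PSI derived from sequencing read proportions per bin multiplied by bin number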
stated-conditions: c terminus: a fixed tail appended
Binary call on protein stability index: Criterion met from 2 upward, Criterion not met beneath that.

    mutant_designation           category
 0                L20A      Criterion met
 1                T16R  Criterion not met
 2                 P2W      Criterion met
 3                 S6E  Criterion not met
 4                F12S  Criterion not met
 5                S13H  Criterion not met
 6                S11Y      Criterion met
 7                 K1Y      Criterion met
 8                K10L  Criterion not met
 9                R14E      Criterion met
10                 P2F  Criterion not met
11                T16W      Criterion met
12                 T4P  Criterion not met
13                S11F  Criterion not met
14                H21D  Criterion not met
15                R23Q      Criterion met
16                T15F      Criterion met
17                S11N      Criterion met
18                R14I      Criterion met
